B1: Pistol ribozyme (parent)
chain: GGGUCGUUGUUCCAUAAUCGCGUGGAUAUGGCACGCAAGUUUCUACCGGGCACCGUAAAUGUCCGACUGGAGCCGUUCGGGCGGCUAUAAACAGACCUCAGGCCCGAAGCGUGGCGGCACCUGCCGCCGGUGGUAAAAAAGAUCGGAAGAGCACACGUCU

# Variants of: B1
# test.summary: aptazyme ON/OFF ratio, guanine; higher = stronger switching; co-transcriptional cleavage with and without guanine
The entries below are paired with their reported aptazyme ON/OFF ratio.
readout.label: aptazyme ON/OFF ratio

• U7G U8G G9U U10C U11G C12G C13U = 1.26
• U7A U8G G9U U10G C12U C13G = 1.24
• U7C G9U U10C U11A C12G C13G = 1.23
• U7G U8C U10C C12A C13G = 1.16
• U8A U10C U11A C12G C13A = 1.15
• U7C U8C G9A U10A U11C C12G C13U = 1.31
• U8C U10A C12A C13G = 1.1
• G9U U10G U11G C12A C13U = 1.38
• U8G G9C U11C C12U C13G = 1.03
• U7C U8C G9A U10A U11C = 1.21
• U7A U10A C12G = 1.22
• G9C U11A C13U = 1.3
• U7G U8G G9A U10A U11G C12G C13A = 1.14
• U7A U10A U11G C12G C13U = 1.16
• U7C G9C U10C U11A C13A = 1.09
• U7A U8C G9U U11C C12G C13A = 1.13
• U7G G9C U10C U11G C12A C13A = 1.09
• U7C G9C U10A C12G C13G = 1.11
• U7G U8C G9A U10G C12U = 1.35
• U7A U8C G9U U10A U11C C12U C13U = 1.18
• U8A G9U U10C U11A C12U C13U = 1.15
• U10C U11C C12G = 1.07
• U7A G9C U11G C12A C13A = 1.1
• U7G U8A G9U U10A C12G = 1.06
• U8C U11A C12U C13A = 1.21
• U7A U8C U10A U11A C12A C13G = 1.15
• U7C U10C U11C C12G C13A = 1.25
• U7G G9A U10A U11G C13G = 1.13
• U7C G9C U10G U11G C12G C13G = 1.11
• U7C U8A U11C = 1.1
• U7C U8A G9C U10C U11A C12U C13U = 1.04
• U8C G9C U10C U11C C12U C13U = 1.01
• U7C U8A G9C U10A U11A C12G C13G = 1.12
• U7C U8A G9A U10C C12U = 1.58
• U8C G9C U10A U11A C12G C13A = 1.1
• U7A G9A U10G U11A C12G C13U = 1.17
• U8G G9C U10G U11G C12G = 1.31
• U10C C12A C13U = 1.18
• U7A G9U U10A U11A = 1.43
• U7G U8G G9C U10C U11G C13G = 1.27
• U8C G9C U10G U11G C12A C13G = 1.11
• U7G U8G G9U = 1.51
• U7C U8C G9A U10G C12A C13A = 1.13
• U7C U8C G9U U10A U11C C12G C13G = 1.19
• U7G G9C U10A C12A C13U = 1.2
• U7G U8C U10G C12G C13A = 1.12
